- subject.of.test: GST-Nv-NF-kB (Cys allele) (Nematostella vectensis, UniProt E5G601 2-411)
- Sequence: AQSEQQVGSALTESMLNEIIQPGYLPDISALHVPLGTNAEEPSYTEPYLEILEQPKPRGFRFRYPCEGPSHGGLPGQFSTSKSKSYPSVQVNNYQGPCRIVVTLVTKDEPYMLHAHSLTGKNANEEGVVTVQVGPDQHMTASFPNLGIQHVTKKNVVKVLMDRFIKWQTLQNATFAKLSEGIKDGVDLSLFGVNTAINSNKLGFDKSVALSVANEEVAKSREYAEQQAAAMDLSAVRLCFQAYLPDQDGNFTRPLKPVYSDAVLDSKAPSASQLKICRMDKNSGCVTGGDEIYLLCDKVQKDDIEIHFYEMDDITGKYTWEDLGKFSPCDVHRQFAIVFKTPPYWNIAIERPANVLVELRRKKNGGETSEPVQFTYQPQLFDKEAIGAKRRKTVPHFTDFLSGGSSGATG
- assay.explanation: protein-binding microarray (PBM); PBM: ~300 nM protein, 6 mM HEPES pH 7.8, 80 mM KCl, 0.5 mM EDTA, 0.5 mM EGTA, 6% glycerol, 35 ng/ul poly-dIdC, 1% milk, 1 h, room temperature; Ap Aiptasia and Nv Nematostella (sea anemones) / Co Capsaspora / Aq Amphimedon (sponge) / Dm Drosophila / Hu human; RHD is the Rel homology domain; high values mean tight binding
- protocol.conditions: dsDNA, one strand shown
Each entry below lists one item and its recorded binding signal value.
observed.property: binding signal (z-score)

item.sequence: CCGATTAACATCAAGATTTCCCCTGATGTTAATCGGGTCTTGATTCGCTTGACGCTGCTG
assay.result: 10.4
--
item.sequence: CCGATTAACATCACCGTTTCCCCTGATGTTAATCGGGTCTTGATTCGCTTGACGCTGCTG
assay.result: 6.66
--
item.sequence: CCGATTAACATCAGGGGAAACAATGATGTTAATCGGGTCTTGATTCGCTTGACGCTGCTG
assay.result: 7.25
--
item.sequence: CCGATTAACATCAGGGGTATAACTGATGTTAATCGGGTCTTGATTCGCTTGACGCTGCTG
assay.result: 1.77
--
item.sequence: CCGATTAACATCAGGGGAACATATGATGTTAATCGGGTCTTGATTCGCTTGACGCTGCTG
assay.result: 5.89
--
item.sequence: CCGATTAACATCATCAGGGGAAATGATGTTAATCGGGTCTTGATTCGCTTGACGCTGCTG
assay.result: 7.05
--
item.sequence: CCGATTAACATCATCCTGGGAAATGATGTTAATCGGGTCTTGATTCGCTTGACGCTGCTG
assay.result: 2.18
--
item.sequence: CCGATTAACATCAAAAATGCCCCTGATGTTAATCGGGTCTTGATTCGCTTGACGCTGCTG
assay.result: 6.79
--
item.sequence: CCGATTAACATCAGGAAATACCCTGATGTTAATCGGGTCTTGATTCGCTTGACGCTGCTG
assay.result: 8.7
--
item.sequence: CCGATTAACATCAGGGGATTAAATGATGTTAATCGGGTCTTGATTCGCTTGACGCTGCTG
assay.result: 6.29
--
item.sequence: CCGATTAACATCACAAAGTCCCCTGATGTTAATCGGGTCTTGATTCGCTTGACGCTGCTG
assay.result: 7.32
--
item.sequence: CCGATTAACATCAGGGAATGTTATGATGTTAATCGGGTCTTGATTCGCTTGACGCTGCTG
assay.result: 4.38
--
item.sequence: CCGATTAACATCAGGCGTCCCCCTGATGTTAATCGGGTCTTGATTCGCTTGACGCTGCTG
assay.result: 5.07
--
item.sequence: CCGATTAACATCAGAGTATTCCCTGATGTTAATCGGGTCTTGATTCGCTTGACGCTGCTG
assay.result: 2.98
--
item.sequence: CCGATTAACATCACTATACCCCCTGATGTTAATCGGGTCTTGATTCGCTTGACGCTGCTG
assay.result: 2.52
--
item.sequence: CCGATTAACATCAAGACTTCCCCTGATGTTAATCGGGTCTTGATTCGCTTGACGCTGCTG
assay.result: 7.56
--
item.sequence: CCGATTAACATCAGGATATACCCTGATGTTAATCGGGTCTTGATTCGCTTGACGCTGCTG
assay.result: 2.26
--
item.sequence: CCGATTAACATCAGGGGGGTTAATGATGTTAATCGGGTCTTGATTCGCTTGACGCTGCTG
assay.result: 4.44

Provenance of the data: paper PMC5700166
